Kindly supply the reported koff values for the records listed here.
# assay_target: T1, biotinylated Aβ1-40 peptide (biotinylated (N-biotinylated in Example 7))
# T1 construct: captured on streptavidin (SA) chip; also called Biotinylated Aβ peptide 1-40; Aβ1-40 on SA chip
# T1 sequence (peptide, as listed by the source): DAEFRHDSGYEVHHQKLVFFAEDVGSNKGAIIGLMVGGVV
# assay_text: SPR, Fab over Aβ1-40 on SA chip
Numbers only, in s⁻¹.

{"columns": ["binder", "metric_name", "unit_name", "observed_value"],
 "data": [
  ["9TL variant M2 Fab (Fab, V domains shown, Fab; human IgG2 CH1 and kappa CL) VH: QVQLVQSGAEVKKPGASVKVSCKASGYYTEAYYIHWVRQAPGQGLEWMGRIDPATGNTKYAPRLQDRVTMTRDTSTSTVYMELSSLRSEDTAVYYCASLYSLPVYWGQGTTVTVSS VL: DVVMTQSPLSLPVTLGQPASISCKSSQSLLYSDAKTYLNWFQQRPGQSPRRLIYQISRLDPGVPDRFSGSGSGTDFTLKISRVEAEDVGVYYCNQGTHYPVLFGQGTRLEIKR", "koff", "s⁻¹", 0.0011]
]}

Now let's try a different one.
Please list koff recorded for the binder 9TL variant M25 Fab (Fab, V domains shown, Fab; human IgG2 CH1 and kappa CL) VH: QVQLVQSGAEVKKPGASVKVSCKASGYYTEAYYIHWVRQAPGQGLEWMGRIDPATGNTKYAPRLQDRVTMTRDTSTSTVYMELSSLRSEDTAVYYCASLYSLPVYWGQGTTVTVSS VL: DVVMTQSPLSLPVTLGQPASISCKSSQSLLYSDAKTYLNWFQQRPGQSPRRLIYQISRLDPGVPDRFSGSGSGTDFTLKISRVEAEDVGVYYCLQGTHYPTLFGQGTRLEIKR
0.008
